Assay: viability loss with induced miR-34 in A549 – imaging, A549 dox-inducible miR-34, nuclei and caspase counts, primary screen (AID 1347080); note: test concentration not given here
Settings: A549 miR-34 inducible, Hoechst nuclei count, 48 h; stronger effect = lower value; cell number ratio, induced over uninduced
// values below are reported fold change
Enter the number alone.

Consider the following illustrative entries.
{"molecule": "CC(=O)NC1=NN(C(C)=O)C(C)(c2ccccc2)S1 (stereo not given)", "fold change": 1.17}
{"molecule": "C[C@@H](O)[C@@H]1NC(=O)[C@H](CCCCN)NC(=O)[C@@H](Cc2c[nH]c3ccccc23)NC(=O)[C@H](Cc2ccccc2)NC(=O)[C@@H](NC(=O)[C@H](N)Cc2ccccc2)CSSC[C@@H](C(=O)N[C@H](CO)[C@@H](C)O)NC1=O", "fold change": 0.862}

Which fold change value belongs to Cc1cc(Nc2cc(CN3CCOCC3)c3nc(C)c(Cc4ccc(Cl)cc4F)n3n2)n[nH]1 ?
1.46

# get_value(readout='fold change', item= CCCCC[C@H](O)/C=C/[C@@H]1[C@H](CCCCCCC(=O)O)[C@@H](O)C[C@H]1O )
0.957

Which value of fold change has been reported for CCCCCCCCCCCCCCCCCCCCCC(=O)NCCS(=O)(=O)O in the records?
0.845

Find the recorded fold change belonging to CC(C)NCC(O)COc1ccccc1-n1cccc1 (stereo not given) and report it.
0.968

Quick one: fold change for CCc1ccc(/C=C2/SC(=S)NC2=O)cc1 ?
1

If you can, please state the reported fold change value of C[C@H](NC[C@H](O)CP(=O)(O)Cc1ccccc1)c1ccc(Cl)c(Cl)c1 .
0.949

Looking for the measured fold change of CCCCC[C@@H](O)/C=C/[C@@H]1[C@@H](C/C=C\CCCC(=O)O)[C@@H](O)C[C@H]1O , can you help?
0.977

---

We begin with a simple list: items and their reported cell count.
Assay: viability loss with induced miR-34 in A549 – imaging, A549 dox-inducible miR-34, nuclei and caspase counts, primary screen (AID 1347080); note: test concentration not given here
Settings: A549 miR-34 inducible, Hoechst nuclei count, 48 h; measured here: total cells with miR-34 induction; stronger effect = lower value
# output: bare number, no unit

Examples with their reported cell count follow.
{"compound": "CCCCC[C@H](O)/C=C/[C@@H]1[C@@H](C/C=C\\CCCC(=O)N(C)C)[C@@H](O)C[C@H]1O", "meas value": 5150}
{"compound": "O=C(O)/C=C1\\CCCc2ccccc2C1O (centres undefined)", "meas value": 8860}
{"compound": "CC[C@H](CC[C@@H](C)[C@H]1CC[C@H]2[C@@H]3CC=C4C[C@@H](O)CC[C@]4(C)[C@H]3CC[C@]12C)C(C)C", "meas value": 8770}
{"compound": "O=P(O)(O)O[C@H]1[C@@H](O)[C@H](O)[C@@H](OP(=O)(O)O)[C@H](OP(=O)(O)O)[C@H]1O", "meas value": 5820}
{"compound": "CCCCCCCNS(=O)(=O)c1cccc2c(Cl)cccc12", "meas value": 8130}
{"compound": "COc1ccc(/C=C\\c2cc(OC)c(OC)c(OC)c2)cc1O", "meas value": 1250}

Quick one: cell count of O=C(O)CCC/C=C/C[C@@H]1[C@@H](/C=C/[C@@H](O)COc2cccc(C(F)(F)F)c2)[C@H](O)C[C@@H]1O ?
6470

Would you kindly share the measured cell count for COc1ccc(-c2nc(N3CCOCC3)c3sc(CN(C)c4ncc(C(=O)NO)cn4)cc3n2)cn1 ?
1250

Which cell count value belongs to CCCCC[C@H](O)/C=C/[C@H]1C(=O)C[C@H](O)[C@@H]1C/C=C\CCCC(=O)NC(CO)CO ?
5680

Please report the recorded cell count for CC1(C)CNc2cc(NC(=O)c3cccnc3NCc3ccncc3)ccc21 .
7470
